The measured values listed here are drawn from the supplement of paper PMC6992640.

Test system: HCI13 (cells of an ER-positive luminal breast cancer xenograft);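 note: PDX cells carrying CMV promoter-driven luciferase, viability read as total photon flux per second by IVIS imaging following D-luciferin, vehicle control 0.1% DMSO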
protocol_notes: cell viability (% of vehicle); higher = less cytotoxic
assay_setup: 10 µM; 72 h
Rule: cell viability below 100 gives Fulfilled. Equal to or above 100 gives Not fulfilled.

Query block: Is cell viability of CCCN(CCC)C(=O)C1=Cc2ccc(-c3ccc(C(=O)N4CCCC4)cc3)cc2NC(=N)C1 [Motolimod (VTX-2337)] strictly below 100?
Result block: Fulfilled

Query block: Is cell viability of Br.COc1ccc2c3c1O[C@H]1C[C@@H](O)C=C[C@@]31CCN(C)C2 [Galanthamine HBr] strictly below 100?
Result block: Fulfilled

Query block: Is cell viability of Cc1cnc(NC(=O)C2=C(O)c3ccccc3S(=O)(=O)N2C)s1 [Meloxicam (Mobic)] strictly below 100?
Result block: Not fulfilled

Query block: Is cell viability of Cl.NCCc1ccc(O)c(O)c1 [Dopamine HCl] strictly below 100?
Result block: Fulfilled

Query block: Is cell viability of Cl.NC(N)=NC(N)=NCCc1ccccc1 [Phenformin HCl] strictly below 100?
Result block: Fulfilled

Query block: Is cell viability of O=C1CCC(C(=O)N2CSCC2C(=O)O)N1 (stereo not drawn) [Pidotimod] strictly below 100?
Result block: Not fulfilled

Query block: Is cell viability of CC(O)C(=O)O.CC(O)C(=O)O.CN1CCN(c2ccc3c(c2)NC(=C2C(=O)N=c4cccc(F)c4=C2N)N3)CC1 [Dovitinib Dilactic acid] strictly below 100?
Result block: Fulfilled

Query block: Is cell viability of COC(=O)C1C2CC3c4[nH]c5cc(OC)ccc5c4CCN3CC2CC(OC(=O)c2cc(OC)c(OC)c(OC)c2)C1OC (stereo not drawn) [Reserpine] strictly below 100?
Result block: Not fulfilled

Query block: Is cell viability of CC(C)OC(=O)OCOP(=O)(COC(C)Cn1cnc2c(N)ncnc21)OCOC(=O)OC(C)C.O=C(O)C=CC(=O)O (stereo not drawn) [Tenofovir Disoproxil Fumarate] strictly below 100?
Result block: Fulfilled

Query block: Is cell viability of CCCNCC(O)COc1ccccc1C(=O)CCc1ccccc1.Cl (stereo not drawn) [Propafenone HCl] strictly below 100?
Result block: Fulfilled

Query block: Is cell viability of CC(OC1OCCN(Cc2nc(=O)[nH][nH]2)C1c1ccc(F)cc1)c1cc(C(F)(F)F)cc(C(F)(F)F)c1 (stereo not drawn) [Aprepitant] strictly below 100?
Result block: Fulfilled

Query block: Is cell viability of CC(C)(O/N=C(\C(=O)N[C@@H]1C(=O)N2C(C(=O)[O-])=C(C[n+]3ccccc3)CS[C@H]12)c1csc(N)n1)C(=O)O [Ceftazidime] strictly below 100?
Result block: Not fulfilled

Query block: Is cell viability of Cl.Cl.Fc1ccc(C(c2ccc(F)cc2)N2CCN(CC=Cc3ccccc3)CC2)cc1 [Flunarizine 2HCl] strictly below 100?
Result block: Fulfilled
